# Tested on: ΔF508-CFTR (Homo sapiens, UniProt P13569, DEL508-508)
# Construct: host or cells: CFBE41o-, doxycycline-inducible
# Sequence (P13569 with tags, fused parts or gaps DEL508-508): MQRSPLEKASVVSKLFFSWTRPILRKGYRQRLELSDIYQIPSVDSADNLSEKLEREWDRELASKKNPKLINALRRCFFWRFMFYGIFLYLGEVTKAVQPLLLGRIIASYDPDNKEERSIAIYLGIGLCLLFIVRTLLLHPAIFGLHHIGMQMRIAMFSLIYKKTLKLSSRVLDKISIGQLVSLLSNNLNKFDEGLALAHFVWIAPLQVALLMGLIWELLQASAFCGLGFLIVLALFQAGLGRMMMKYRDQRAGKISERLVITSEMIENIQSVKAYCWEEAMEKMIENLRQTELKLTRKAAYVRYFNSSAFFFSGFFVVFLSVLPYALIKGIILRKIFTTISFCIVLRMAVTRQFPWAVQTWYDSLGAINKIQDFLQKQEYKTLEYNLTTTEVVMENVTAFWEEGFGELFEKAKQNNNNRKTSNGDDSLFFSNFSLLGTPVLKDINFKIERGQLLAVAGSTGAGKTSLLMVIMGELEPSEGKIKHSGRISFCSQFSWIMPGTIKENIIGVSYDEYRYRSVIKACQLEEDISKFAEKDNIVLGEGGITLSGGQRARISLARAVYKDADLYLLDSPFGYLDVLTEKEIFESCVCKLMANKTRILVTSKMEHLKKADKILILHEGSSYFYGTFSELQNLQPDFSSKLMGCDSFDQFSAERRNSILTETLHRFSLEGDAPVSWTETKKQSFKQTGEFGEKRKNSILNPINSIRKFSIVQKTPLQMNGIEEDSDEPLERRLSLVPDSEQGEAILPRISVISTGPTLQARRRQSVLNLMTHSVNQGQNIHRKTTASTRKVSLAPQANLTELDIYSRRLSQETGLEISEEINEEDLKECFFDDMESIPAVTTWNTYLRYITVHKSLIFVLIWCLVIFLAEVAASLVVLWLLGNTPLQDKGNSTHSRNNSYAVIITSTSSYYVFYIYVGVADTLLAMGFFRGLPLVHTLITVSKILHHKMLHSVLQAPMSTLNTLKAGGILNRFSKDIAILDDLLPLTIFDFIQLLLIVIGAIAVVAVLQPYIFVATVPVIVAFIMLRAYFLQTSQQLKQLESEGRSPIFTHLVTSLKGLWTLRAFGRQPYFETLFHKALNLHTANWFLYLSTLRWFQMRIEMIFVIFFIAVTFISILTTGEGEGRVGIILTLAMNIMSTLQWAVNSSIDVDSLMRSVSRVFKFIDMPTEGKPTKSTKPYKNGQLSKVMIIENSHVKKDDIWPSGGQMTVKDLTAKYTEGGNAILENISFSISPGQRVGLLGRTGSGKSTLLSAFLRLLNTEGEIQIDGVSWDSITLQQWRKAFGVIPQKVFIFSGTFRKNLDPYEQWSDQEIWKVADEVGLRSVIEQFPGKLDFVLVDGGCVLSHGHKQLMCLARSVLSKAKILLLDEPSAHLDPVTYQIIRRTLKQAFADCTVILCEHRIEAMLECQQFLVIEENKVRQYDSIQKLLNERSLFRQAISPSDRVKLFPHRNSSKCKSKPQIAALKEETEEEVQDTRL
# Measurement notes: CFTR cell surface levels using HRP-tagged ΔF508-CFTR expressing CFBE cells, in the presence of a co-corrector
# Assay type: cell-based
# Test settings: HRP-tagged ΔF508-CFTR CFBE cells, in the presence of 3 μM co-corrector
Label Criterion met when % Activation is strictly below 400%; otherwise label Criterion not met.

*Q* For `CC(C)c1nn(-c2ccc(F)cc2)c2nc(C(=O)NS(C)(=O)=O)cc(OCCN(C(C)C)C3COC3)c12` , is the recorded % Activation below the cut-off of 400%?
*A* Criterion met

*Q* Same read-out for `COC1(CN2CCS(=O)(=O)CC2)CCN(c2cc(C(=O)NS(C)(=O)=O)nc3c2c(C2CCC2)nn3-c2ccccc2)CC1` ?
*A* Criterion met

*Q* Same read-out for `CS(=O)(=O)NC(=O)c1cc(-c2ccc(N3CCC(C#N)CC3)nc2)c2c(n1)n(-c1ccccc1)nc2[C@H]1C[C@H](C)C1` ?
*A* Criterion not met

*Q* Same read-out for `CS(=O)(=O)NC(=O)c1cc(N2CC3(CCC3)C2)c2c(C3CCC3)nn(-c3ccccc3)c2n1` ?
*A* Criterion met

*Q* Same read-out for `COCC1CCN(c2cc(C(=O)NS(=O)(=O)CCN3C(=O)c4ccccc4C3=O)nc3c2c(C2CCC2)nn3-c2ccccc2)CC1` ?
*A* Criterion not met

*Q* Same read-out for `CC(C)c1nn(-c2cccc(N3CCOCC3)c2)c2nc(C(=O)NS(C)(=O)=O)cc(-c3ccc(N(C)C)nc3)c12` ?
*A* Criterion not met

*Q* Same read-out for `COC(=O)N1CC(c2nn(-c3cc(F)cc(F)c3)c3nc(C(=O)NS(C)(=O)=O)cc(-c4ccc(NC(C)=O)cc4)c23)C1` ?
*A* Criterion met

*Q* Same read-out for `CN(C)S(=O)(=O)NC(=O)c1cc(N2CCC(CCN3CCOCC3)CC2)c2c(C3CCC3)nn(-c3ccc(F)cc3)c2n1` ?
*A* Criterion not met

*Q* Same read-out for `CN(c1ccc(-c2cc(C(=O)NS(C)(=O)=O)nc3c2c(C2CCC2)nn3-c2cccc(N3CCCC3)c2)cc1)C1CCOCC1` ?
*A* Criterion not met

*Q* Same read-out for `CN(C)S(=O)(=O)NC(=O)c1cc(CN2CCOCC2)c2c(C3CCC3)nn(-c3ccc(F)cc3)c2n1` ?
*A* Criterion met

*Q* Same read-out for `CN(C)S(=O)(=O)NC(=O)c1cc(OCC2CCN(C3CCC3)CC2)c2c(C3CCC3)nn(-c3ccc(F)cc3)c2n1` ?
*A* Criterion met

*Q* Same read-out for `Cc1nn(-c2cccc(C(F)(F)F)c2)c2nc(C(=O)NS(C)(=O)=O)cc(-c3ccc(N4CCOCC4)nc3)c12` ?
*A* Criterion not met

*Q* Same read-out for `CN1CCCN(C(=O)c2cc(N3CCC(N4CCOCC4)CC3)c3c(C4CCC4)nn(-c4ccccc4)c3n2)S1(=O)=O` ?
*A* Criterion met

*Q* Same read-out for `CC(C)c1nn(-c2cccc(N(C)C)c2)c2nc(C(=O)NS(=O)(=O)CCCN=[N+]=[N-])cc(-c3ccc(N=[N+]=[N-])cc3)c12` ?
*A* Criterion not met

*Q* Same read-out for `O=C(NS(=O)(=O)N1CCCCC1)c1cc(N2CCC(N3CCOCC3)CC2)c2c(C3CCC3)nn(-c3ccc(F)cc3)c2n1` ?
*A* Criterion not met

*Q* Same read-out for `Cc1cccc(-n2nc(C(C)C)c3c(N4CCC(S(C)(=O)=O)CC4)cc(C(=O)NS(C)(=O)=O)nc32)c1` ?
*A* Criterion not met

*Q* Same read-out for CS(=O)(=O)NC(=O)c1cc(N2CC3CC3C2)c2c(C3CCC3)nn(-c3ccccc3)c2n1 (stereo not shown) ?
*A* Criterion met

The origin of these recorded values is patent US10259810B2.
